Sourced from patent US7060844B2

- Test system: VEGF induced increases in intracellular calcium levels in HUVEC (human umbilical vein endothelial cells)
- test-details: VEGF Stimulated Ca++ Signal in Vitro (FLIPR, cell based assay)
- details: Homo sapiens, single concentration 10 uM, VEGF 5 ng/mL
Consider the following compounds and their measured inhibition at 10 µM readings.
API: value field is a number in %; no unit string.

Nc1ccc2c(c1)C(=C1C(=O)Nc3ccccc31)OC2 [Example 5] = 98

Let us move to another entry and its inhibition at 10 µM.
**Q:** Please report the recorded inhibition at 10 µM for CC(=O)Nc1ccc2c(c1)C(=C1C(=O)Nc3ccc(Cl)cc31)OC2 [Example 20] .
**A:** 99

###

- assayed-target: cytoplasmic domain of the human VEGF receptor (VEGFR-2) (Homo sapiens)
- Construct: The cytoplasmic domain of the human VEGF receptor (VEGFR-2) was expressed; His (Histidine tag); made in house; host or cells: insect cells (engineered baculovirus)
- test-details: KDR kinase assay (ELISA, poly-Glu-Tyr substrate, with BSA)
- Format: biochemical
- details: His-VEGFR-2, 3.6 μM ATP, plates incubated with 1% BSA
observable: IC50
Please append the unit to your numeric answer.

Below, each entry is followed by its recorded IC50 result.
Nc1ccc2c(c1)COC2=C1C(=O)Nc2ccccc21 [Example 12] = 0.065 µM
Nc1ccc2c(c1)CO/C2=C1/C(=O)Nc2ccc(Cl)cc21 [Example 17] = 0.139 µM

**Q:** Please report the recorded IC50 for CN(C)c1ccc2c(c1)COC2=C1C(=O)Nc2ccccc21 [Example 23] .
**A:** 0.043 µM

**Q:** Please do the same for CCNc1ccc2c(c1)COC2=C1C(=O)Nc2ccccc21 [Example 15] as well.
**A:** 0.037 µM

**Q:** Please do the same for CCCC(=O)Nc1ccc2c(c1)C(=C1C(=O)Nc3ccccc31)OC2 [Example 7] as well.
**A:** 9.78 µM

###

- System: VEGF induced increases in intracellular calcium levels in HUVEC (human umbilical vein endothelial cells)
- test-details: VEGF Stimulated Ca++ Signal in Vitro (FLIPR, cell based assay)
- details: Homo sapiens, single concentration 10 uM, VEGF 5 ng/mL
observable: inhibition at 10 µM (%)
API: value field is a number in %; no unit string.

Below, each entry is followed by its recorded inhibition at 10 µM result.
COc1ccc(CC(=O)Nc2ccc3c(c2)C(=C2C(=O)Nc4ccccc42)OC3)cc1 = 50
O=C(CCCCl)Nc1ccc2c(c1)C(=C1C(=O)Nc3ccccc31)OC2 = 35
Cc1cccc2c1C(=C1OCc3ccccc31)C(=O)N2 = 95
CN(C)c1ccc2c(c1)COC2=C1C(=O)Nc2ccccc21 = 96
CCNc1ccc2c(c1)C(=C1C(=O)Nc3ccccc31)OC2 = 99

**Q:** Please report the recorded inhibition at 10 µM for `O=C1Nc2ccccc2C1=C1OCc2ccc(NCCCO)cc21` .
**A:** 100

**Q:** Please do the same for `Nc1ccc2c(c1)COC2=C1C(=O)Nc2ccccc21` as well.
**A:** 98

**Q:** Please do the same for `CNc1ccc2c(c1)C(=C1C(=O)Nc3ccccc31)OC2` as well.
**A:** 96

**Q:** Please do the same for `CN(C)c1ccc2c(c1)C(=C1C(=O)Nc3ccccc31)OC2` as well.
**A:** 94

**Q:** Please do the same for `Nc1ccc2c(c1)C(=C1C(=O)Nc3ccc(Cl)cc31)OC2` as well.
**A:** 99

**Q:** Please do the same for `CCCC(=O)Nc1ccc2c(c1)C(=C1C(=O)Nc3ccccc31)OC2` as well.
**A:** 5

**Q:** Please do the same for `Nc1ccc2c(c1)CO/C2=C1/C(=O)Nc2ccc(Cl)cc21` as well.
**A:** 98

###

- assayed-target: cytoplasmic domain of the human VEGF receptor (VEGFR-2) (Homo sapiens)
- Construct: The cytoplasmic domain of the human VEGF receptor (VEGFR-2) was expressed; His (Histidine tag); made in house; host or cells: insect cells (engineered baculovirus)
- test-details: KDR kinase assay (ELISA, poly-Glu-Tyr substrate, with BSA)
- Type: biochemical
- details: His-VEGFR-2, 3.6 μM ATP, plates incubated with 1% BSA
Consider the following compounds and their measured log10 IC50 readings.
Would you kindly interpret these values as log10 of IC50 expressed in µM?

Below, each entry is followed by its recorded log10 IC50 result.
O=C1Nc2ccc(F)cc2C1=C1OCc2ccccc21 = -1.14
Nc1ccc2c(c1)C(=C1C(=O)Nc3ccccc31)OC2 = -0.89
CN(C)c1ccc2c(c1)C(=C1C(=O)Nc3ccccc31)OC2 = 0.23
CNc1ccc2c(c1)COC2=C1C(=O)Nc2ccccc21 = -1.21
CC(=O)Nc1ccc2c(c1)COC2=C1C(=O)Nc2ccc(Cl)cc21 = -1.18

Let us move to another entry and its log10 IC50.
**Q:** Please report the recorded log10 IC50 for `COc1ccc(CC(=O)Nc2ccc3c(c2)C(=C2C(=O)Nc4ccccc42)OC3)cc1` .
**A:** 0.90

###

Consider the following compounds and their measured inhibition at 10 µM readings.
- Tested on: VEGF induced increases in intracellular calcium levels in HUVEC (human umbilical vein endothelial cells)
- test-details: VEGF Stimulated Ca++ Signal in Vitro (FLIPR, cell based assay)
- details: Homo sapiens, single concentration 10 uM, VEGF 5 ng/mL
API: value field is a number in %; no unit string.

Below, each entry is followed by its recorded inhibition at 10 µM result.
CC(=O)Nc1ccc2c(c1)COC2=C1C(=O)Nc2ccc(Cl)cc21 = 99
O=C1Nc2ccc(F)cc2C1=C1OCc2ccccc21 = 99
O=C1Nc2ccccc2C1=C1OCc2ccccc21 = 99
Nc1ccc(CO)c(C(=O)Nc2ccc3c(c2)C(=C2C(=O)Nc4ccccc42)OC3)c1 = 99
O=C1Nc2ccc(Cl)cc2C1=C1OCc2ccccc21 = 98
CC(=O)Nc1ccc2c(c1)COC2=C1C(=O)Nc2ccccc21 = 97
CCNc1ccc2c(c1)COC2=C1C(=O)Nc2ccccc21 = 95
O=C1Nc2ccccc2C1=C1OCc2ccc(NC(=O)C3CC3)cc21 = 48

Let us move to another entry and its inhibition at 10 µM.
**Q:** Please report the recorded inhibition at 10 µM for `CNc1ccc2c(c1)COC2=C1C(=O)Nc2ccccc21` .
**A:** 98

###

Consider the following compounds and their measured IC50 readings.
- assayed-target: cytoplasmic domain of the human VEGF receptor (VEGFR-2) (Homo sapiens, UniProt P35968)
- Construct: The cytoplasmic domain of the human VEGF receptor (VEGFR-2) was expressed; His (Histidine tag); made in house; host or cells: insect cells (engineered baculovirus)
- Sequence (P35968 786-1356 limits assumed): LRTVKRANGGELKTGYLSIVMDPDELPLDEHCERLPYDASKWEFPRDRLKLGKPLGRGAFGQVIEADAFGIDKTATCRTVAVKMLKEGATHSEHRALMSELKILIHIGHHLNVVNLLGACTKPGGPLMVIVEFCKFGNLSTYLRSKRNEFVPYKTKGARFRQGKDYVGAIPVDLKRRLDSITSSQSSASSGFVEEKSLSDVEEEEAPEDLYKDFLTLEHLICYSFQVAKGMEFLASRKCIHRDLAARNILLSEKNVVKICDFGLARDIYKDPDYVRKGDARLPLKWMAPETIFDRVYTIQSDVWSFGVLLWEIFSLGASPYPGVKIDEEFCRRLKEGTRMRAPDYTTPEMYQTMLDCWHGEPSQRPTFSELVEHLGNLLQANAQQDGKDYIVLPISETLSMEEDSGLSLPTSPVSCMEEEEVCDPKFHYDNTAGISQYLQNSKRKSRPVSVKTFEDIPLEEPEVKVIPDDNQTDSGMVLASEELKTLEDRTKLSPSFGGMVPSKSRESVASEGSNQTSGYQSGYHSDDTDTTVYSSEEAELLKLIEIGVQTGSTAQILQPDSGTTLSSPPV
- test-details: KDR kinase assay (ELISA, poly-Glu-Tyr substrate, with BSA)
- Assay type: biochemical
- details: His-VEGFR-2, 3.6 μM ATP, plates incubated with 1% BSA
API: value field is a number in µM; no unit string.

Below, each entry is followed by its recorded IC50 result.
CC(=O)Nc1ccc2c(c1)C(=C1C(=O)Nc3ccc(Cl)cc31)OC2 [Example 20] = 0.39
O=C(CCCCl)Nc1ccc2c(c1)C(=C1C(=O)Nc3ccccc31)OC2 [Example 9] = 3.25
CCNc1ccc2c(c1)C(=C1C(=O)Nc3ccccc31)OC2 [Example 11] = 0.66
Nc1ccc2c(c1)C(=C1C(=O)Nc3ccc(Cl)cc31)OC2 [Example 16] = 0.015
O=C1Nc2ccccc2C1=C1OCc2ccc(NC(=O)C3CC3)cc21 [Example 8] = 0.85
Nc1ccc(CO)c(C(=O)Nc2ccc3c(c2)C(=C2C(=O)Nc4ccccc42)OC3)c1 [Example 13] = 1.34
CC(=O)Nc1ccc2c(c1)COC2=C1C(=O)Nc2ccccc21 [Example 18] = 0.063
O=C1Nc2ccccc2C1=C1OCc2ccc(NCCCO)cc21 [Example 14] = 0.64

Let us move to another entry and its IC50.
**Q:** Please report the recorded IC50 for CNc1ccc2c(c1)C(=C1C(=O)Nc3ccccc31)OC2 [Example 22] .
**A:** 0.17
